molecular target: recombinant PfPP1 (Plasmodium falciparum); assay: biochemical; type: biochemical; conditions: read-out: IC50 for inhibition of PfPP1; recombinant PfPP1; data not shown
pIC50: −log10 of the molar value.

Compound | pIC50
[F-].[Na+] [NaF] | 2.60
